experimental-target: D(3) dopamine receptor (Rattus norvegicus)
Sequence (P19020 whole entry): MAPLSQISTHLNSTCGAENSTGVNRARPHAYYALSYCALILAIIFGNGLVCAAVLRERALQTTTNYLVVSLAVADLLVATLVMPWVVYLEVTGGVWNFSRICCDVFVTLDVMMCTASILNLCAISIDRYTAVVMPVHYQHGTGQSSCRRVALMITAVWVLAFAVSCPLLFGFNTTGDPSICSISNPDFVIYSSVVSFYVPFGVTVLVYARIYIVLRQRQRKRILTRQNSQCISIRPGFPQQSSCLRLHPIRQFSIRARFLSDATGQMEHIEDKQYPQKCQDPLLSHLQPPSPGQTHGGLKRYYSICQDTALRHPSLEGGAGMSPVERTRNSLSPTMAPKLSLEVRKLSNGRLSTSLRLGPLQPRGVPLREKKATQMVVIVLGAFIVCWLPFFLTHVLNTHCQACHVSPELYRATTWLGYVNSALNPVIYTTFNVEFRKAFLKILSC
Listing: IC50 of selected compounds
Report only the number, with the unit nM understood.

Illustrative cases are given below, each with its answer.
[[record]]
given_smiles = "O=S(=O)(N[C@H]1CC[C@H](CCN2CCN(c3cccc(Cl)c3Cl)CC2)CC1)c1cccnc1"
experimental_target = "D(3) dopamine receptor (Rattus norvegicus)"
val = 0.2

[[record]]
given_smiles = "O=S(=O)(N[C@H]1CC[C@H](CCN2CCC(Cc3cccc(C(F)(F)F)c3)CC2)CC1)c1ccc(-n2cccn2)cc1"
experimental_target = "D(3) dopamine receptor (Rattus norvegicus)"
val = 0.5


# context switch: different compound, same IC50
Problem: Supply recorded IC50 for O=C1COc2ccc(S(=O)(=O)N[C@H]3CC[C@H](CCN4CCC(Oc5cccc(C(F)(F)F)c5)CC4)CC3)cc2N1 here.
Solution: 1

###

Let's go through some IC50 measurements on D(3) dopamine receptor (Rattus norvegicus) together.
Note: unit nM is implicit; provide only the numeric part.

[[record]]
given_smiles = "COc1ccc(S(=O)(=O)N[C@H]2CC[C@H](CCN3CCN(c4ccc(Br)cc4OC)CC3)CC2)cc1"
val = 0.5

[[record]]
given_smiles = "N#Cc1cc(N2CCN(CC[C@H]3CC[C@H](NS(=O)(=O)c4cccnc4)CC3)CC2)cc(C(F)(F)F)c1"
val = 0.4

[[record]]
given_smiles = "O=S(=O)(N[C@H]1CC[C@H](CCN2CCC(Cc3cccc(C(F)(F)F)c3)CC2)CC1)c1ccc(Cl)cc1"
val = 3.8


Now turn to the next molecule.
Problem: Give the value of IC50 reported for the following: O=S(=O)(N[C@H]1CC[C@H](CCN2CCC(Cc3cccc(C(F)(F)F)c3)CC2)CC1)c1cc2ccccc2s1
Solution: 2.6

###

method-notes: Tmax in orally dosed rat brain
Type: ADME, organism-based
applied-conditions: po
measurement-type: Tmax (h)
Numbers only; they are read as h.

Problem: Give Tmax for N#Cc1cc(N2CCN(CC[C@H]3CC[C@H](NS(=O)(=O)c4cccnc4)CC3)CC2)cc(C(F)(F)F)c1
Solution: 1

###

This listing pairs compounds with measured pIC50.
experimental-target: D(2) dopamine receptor (Rattus norvegicus, UniProt P61169)
Sequence (P61169 whole entry): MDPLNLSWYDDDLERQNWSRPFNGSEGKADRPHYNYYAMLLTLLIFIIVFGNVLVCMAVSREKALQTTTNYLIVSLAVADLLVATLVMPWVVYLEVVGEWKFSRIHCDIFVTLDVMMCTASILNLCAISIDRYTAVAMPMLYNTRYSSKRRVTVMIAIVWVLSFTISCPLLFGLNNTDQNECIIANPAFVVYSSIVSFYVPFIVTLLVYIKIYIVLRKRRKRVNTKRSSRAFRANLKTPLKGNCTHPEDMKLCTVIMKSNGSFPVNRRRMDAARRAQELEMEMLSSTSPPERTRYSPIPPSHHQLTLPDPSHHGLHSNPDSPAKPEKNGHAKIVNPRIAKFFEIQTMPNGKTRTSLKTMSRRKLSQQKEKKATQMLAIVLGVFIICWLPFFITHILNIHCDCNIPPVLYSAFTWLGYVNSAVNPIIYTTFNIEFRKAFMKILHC
method-notes: Displacement of [3H]spiperone from dopamine D2 receptor in rat striatal membranes
pIC50 here: minus log base 10 of the concentration, concentration in moles per litre.

Problem: Answer with the recorded pIC50 of COc1ccc(S(=O)(=O)N[C@H]2CC[C@H](CCN3CCN(c4ccc(Br)cc4OC)CC3)CC2)cc1 only.
Solution: 7.55

Problem: Identify measured pIC50 associated with O=S(=O)(N[C@H]1CC[C@H](CCN2CCC(Nc3cc(Cl)ccc3Cl)CC2)CC1)c1ccc(F)cc1
Solution: 8.05

Problem: Report pIC50 for Cc1ccc(S(=O)(=O)N[C@H]2CC[C@H](CCN3CCN(c4cc(C#N)cc(C(F)(F)F)c4)CC3)CC2)cn1
Solution: 7.41

Problem: Provide measured pIC50 value, entry: O=S(=O)(N[C@H]1CC[C@H](CCN2CCN(c3cccc(Cl)c3Cl)CC2)CC1)c1cccnc1
Solution: 8.40

Problem: Please give the documented pIC50 of N#Cc1cc(N2CCN(CC[C@H]3CC[C@H](NS(=O)(=O)c4ccc(Br)cc4)CC3)CC2)cc(C(F)(F)F)c1
Solution: 7.59

Problem: Identify measured pIC50 corresponding to N#Cc1cc(N2CCN(CC[C@H]3CC[C@H](NS(=O)(=O)c4ccc5c(c4)CCC(=O)N5)CC3)CC2)cc(C(F)(F)F)c1
Solution: 7.52

Problem: Given the compound O=C1COc2ccc(S(=O)(=O)N[C@H]3CC[C@H](CCN4CCC(Oc5cccc(C(F)(F)F)c5)CC4)CC3)cc2N1 , write its reported pIC50.
Solution: 8.28

Problem: Dear colleague, please send me the reported pIC50 for O=S(=O)(N[C@H]1CC[C@H](CCN2CCC(Cc3cccc(C(F)(F)F)c3)CC2)CC1)c1ccc(Cl)cc1 when you can.
Solution: 7.39

Problem: Quickly give me recorded pIC50 for N#Cc1cc(N2CCN(CC[C@H]3CC[C@H](NS(=O)(=O)c4cccc(C#N)c4)CC3)CC2)cc(C(F)(F)F)c1
Solution: 7.64

Problem: Determine from records and report pIC50 for COc1ccc(S(=O)(=O)N[C@H]2CC[C@H](CCN3CCN(c4cccc(C#N)c4)CC3)CC2)cc1OC
Solution: 7.24

Problem: Consider the compound O=S(=O)(N[C@H]1CC[C@H](CCN2CCC(Cc3cccc(C(F)(F)F)c3)CC2)CC1)c1cc2ccccc2s1 . State its measured pIC50.
Solution: 7.04

Problem: Give the measured pIC50 for N#Cc1cc(N2CCN(CC[C@H]3CC[C@H](NS(=O)(=O)c4cccnc4)CC3)CC2)cc(C(F)(F)F)c1
Solution: 7.62

Problem: Supply reported pIC50 belonging to this compound: CC(=O)Nc1ccc(S(=O)(=O)N[C@H]2CC[C@H](CCN3CCN(c4cc(C#N)cc(C(F)(F)F)c4)CC3)CC2)cc1
Solution: 7.41

Problem: Return value of pIC50 for input O=S(=O)(N[C@H]1CC[C@H](CCN2CCC(Cc3cccc(C(F)(F)F)c3)CC2)CC1)c1ccc(-n2cccn2)cc1 , no commentary.
Solution: 8.37

Where do the numbers come from? From ChEMBL document CHEMBL1149708.
